Target: Alkaline phosphatase, tissue-nonspecific isozyme (Homo sapiens)
Assay: human TNAP enzyme activators, primary screen, biochemical, luminescent, no phosphate acceptor, uHTS (AID 1001)
Settings: purified TNAP, luminescent activation assay, at 20 µM
Out of some 200,000 compounds screened, about 50 (0.03%) were called active. How the calls were made is not given here. What follows is part of a selection rich in actives, with near analogues and random picks from the rest. Potency and affinity values are given separately.
Labels: 1 = active, -1 = inactive

| molecule | class.name |
| --- | --- |
| O=C(Nc1ccccc1-c1ccccc1)NC1CC2CCCC(C1)N2Cc1ccc(F)cc1 (stereo unspecified) | -1 |
| COc1ccccc1CC(Cc1nc2ccccc2[nH]1)c1nc2ccccc2[nH]1 (stereo unspecified) | -1 |
| CNC(=S)NC1CC2CCCC(C1)N2Cc1ccc(C)cc1 (stereo unspecified) | -1 |
| Cc1ccc(NC(=O)c2cccc(S(C)(=O)=O)c2)cc1 | -1 |
| O=c1[nH]c(NCCO)nc2c1C1(CCCCC1)Cc1ccccc1-2 | -1 |
| Cc1ccc(C)c(NC(=O)CS(=O)(=O)c2c[nH]c3ccccc23)c1 | -1 |
| CCNC(=S)NC1CC2CCC(C1)N2Cc1ccccc1 (stereo unspecified) | -1 |
| Cc1ccccc1NC(=O)c1ccc(S(=O)(=O)C(F)F)cc1 | -1 |
| Cc1cc(C)cc(CC(Cc2nc3ccccc3[nH]2)c2nc3ccccc3[nH]2)c1 (stereo unspecified) | -1 |
| CC(=O)c1ccc(NC(=O)COc2ccc3c(c2)OCO3)cc1 | -1 |
| O=c1cc(N2CCc3ccccc3C2)[nH]c(=O)n1Cc1ccc(F)cc1 | -1 |
| OC(Cn1ccnc1)c1ccc(Cl)cc1Cl (stereo unspecified) | -1 |
| Clc1ccc(SCCn2ccnc2)cc1 | -1 |
| Cc1nn(C)cc1/C=C/C(=O)c1ccccc1 | -1 |
| Cn1c(C(=O)NCC2CCCO2)cc2c(=O)n(C)c3ccccc3c21 (stereo unspecified) | -1 |
| O=C(OCC1O[C@@H](OC(=O)c2cc(O)c(O)c(O)c2)[C@@H](OC(=O)c2cc(O)c(O)c(O)c2)[C@@H](OC(=O)c2cc(O)c(O)c(O)c2)[C@@H]1OC(=O)c1cc(O)c(O)c(O)c1)c1cc(O)c(O)c(O)c1 (stereo partly specified) | 1 |
| O=C(O)c1ccc(CNC(=O)c2ccc(C(F)(F)F)cc2)cc1 | -1 |
| COC(=O)c1cc(O)c(O)c(O)c1 | -1 |
| Cn1c(NCCCO)nc2c(c1=O)C1(CCCCC1)Cc1ccccc1-2 | -1 |
| N#Cc1c(SCC(=O)O)nc(-c2ccccc2)c2c1CCCC2 | -1 |
| O=C(O[C@@H]1OC2COC(=O)c3cc(O)c(O)c(O)c3-c3c(cc(O)c(O)c3O)C(=O)O[C@@H]([C@H]1O)[C@@H]2O)c1cc(O)c(O)c(O)c1 | -1 |

###

Target: Alkaline phosphatase, tissue-nonspecific isozyme (Homo sapiens) (UniProt P05186)
Sequence (P05186 whole entry, looked up): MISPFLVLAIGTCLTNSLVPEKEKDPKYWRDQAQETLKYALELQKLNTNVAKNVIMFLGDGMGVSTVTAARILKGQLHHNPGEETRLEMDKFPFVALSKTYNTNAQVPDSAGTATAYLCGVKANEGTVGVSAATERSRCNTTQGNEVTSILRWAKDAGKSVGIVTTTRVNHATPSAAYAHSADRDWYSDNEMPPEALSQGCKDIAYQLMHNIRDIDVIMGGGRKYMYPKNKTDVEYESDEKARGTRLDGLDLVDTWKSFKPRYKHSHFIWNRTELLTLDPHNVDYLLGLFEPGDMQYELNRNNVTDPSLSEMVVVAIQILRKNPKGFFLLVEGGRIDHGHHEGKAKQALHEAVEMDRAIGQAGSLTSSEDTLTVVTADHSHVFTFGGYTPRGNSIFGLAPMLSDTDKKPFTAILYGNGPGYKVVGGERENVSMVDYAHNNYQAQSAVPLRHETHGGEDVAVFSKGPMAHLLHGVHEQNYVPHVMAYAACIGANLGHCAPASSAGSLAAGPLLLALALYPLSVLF
Test: human TNAP enzyme activators, primary screen, biochemical, luminescent, no phosphate acceptor, uHTS (AID 1001)
Conditions: purified TNAP, luminescent activation assay, at 20 µM, active compounds read high
The whole screen tested about 200,000 compounds, of which about 50 (0.03%) were called active. The full list was thinned out, with actives kept by preference. Measured potencies and affinities stand elsewhere.
List of activation fold values.

| compound | activation fold |
| --- | --- |
| COc1ccc(/C=C2\SC(=O)N(CC(=O)NNC(=O)c3ccccc3O)C2=O)cc1OC | 2.4 |
| CNC(=O)N(O)C1N(C)C(=O)N(Cc2ccccc2)C1(C)C (configuration not stated) | 1.1 |
| Cc1ccc2nc(-c3ccccc3)c(CN3CCN(c4ccccc4F)CC3)n2c1 | 1.1 |
| CC(C)N1CC(O)=C(c2nc3ccccc3[nH]2)C1=N | 1.4 |
| Cc1ccc(CC(=O)Nc2nc3ccccc3s2)cc1 | 1 |
| Clc1ccc(-c2nc3ccccn3c2CN2CCCCC2)cc1 | 1.1 |
| COC(=O)C1=C(C)N=C2SC(C#N)=C(N)N2C1c1ccc(OC)cc1 (configuration not stated) | 1 |

###

List of activation fold values.
Molecular target: Alkaline phosphatase, tissue-nonspecific isozyme (Homo sapiens) (UniProt P05186)
Assay: human TNAP enzyme activators, primary screen, biochemical, luminescent, no phosphate acceptor, uHTS (AID 1001)
Details: purified TNAP, luminescent activation assay, at 20 µM, active compounds read high
About 50 (0.03%) of roughly 200,000 compounds were called active. The sample as a whole holds a higher share of actives than the screen did. Entries with a potency or affinity are not part of this list.

| compound | activation fold |
| --- | --- |
| COC(=O)NNC(=O)c1ccc(C(C)(C)C)cc1 | 1.1 |
| OCCCN1c2ccccc2Nc2nnc(-c3ccccc3)cc21 | 1.5 |
| CN(C)CCNc1ccc(-c2nn(C)c(=O)c3ccccc23)cc1[N+](=O)[O-] | 1 |
| CCN1/C(=C/C(C)=C/c2sc3ccccc3[n+]2CC)Sc2ccccc21 | 0.4 |
| CC(C)OC(=O)C1C2C=CC3(CN(C(C)c4ccc(Br)cc4)C(=O)C13)O2 (stereo unspecified) | 1.1 |
| C=CCNC(=S)NNC(=O)C(CCCC)CC(C)O (stereo unspecified) | 1.7 |
| CCN(CC)c1ccc(C=Nc2ccc(N(C)C)cc2)c(O)c1 | 2.3 |
| O=C(CSc1nnc(C2COc3ccccc3O2)o1)Nc1nccs1 (stereo unspecified) | 1.2 |
| CCOC(=O)CSc1nc2c(sc3ccc([N+](=O)[O-])cc32)c(=O)n1Cc1ccco1 | 1.1 |
| Cc1ccc(Nc2nc(N)nc(CN3CCN(C(=O)c4ccco4)CC3)n2)cc1Cl | 1 |
| COc1cc(NC(=O)CN2CCCCC2)c(C)cc1[N+](=O)[O-] | 1.1 |
| CCc1cc2c(=O)[nH]c(-c3ccccn3)nc2s1 | 1.8 |
| Cc1sc2nc(-c3ccccn3)[nH]c(=O)c2c1-c1ccccc1 | 1.4 |
| CC(/C=N/NC(=O)Cc1cccs1)=C\c1ccccc1 | 1 |
| Cn1c(=O)c2c(nc(NCc3ccco3)n2C)n(C)c1=O | 1.1 |
| OCCNc1ncnc2c1c(-c1ccccc1)c(-c1ccccc1)n2Cc1ccco1 | 1.1 |
| COc1ccc(NC(=O)CC2C(=O)N(Cc3cccs3)C(=S)N2C(C)C)cc1 (stereo unspecified) | 1.1 |
| COc1ccc2nc(C)cc(SCC(=O)NNC(=O)COc3ccc(C)cc3)c2c1 | 1.1 |
| CCNC(=S)NNC(=O)c1cc(C)nc2ccccc12 | 1.7 |
| COc1cccc(C(=O)NNC(=O)c2ccccc2-n2cccc2)c1 | 1.3 |
| COc1ccc(N/C=C\C(=O)c2ccc(Br)cc2)cc1OC | 1.1 |
| CC(C)c1[nH]nc2c1C1(CCN(Cc3ccccc3)CC1)C(C#N)=C(N)O2 | 0.9 |
| C=CCN1C(=O)C2(NC(=O)c3ccccc3N2)c2ccccc21 (stereo unspecified) | 1.1 |
| COc1ccc(CN2CCNC(=O)C2CC(=O)NCc2ccc(C)s2)c(OC)c1 (stereo unspecified) | 1.1 |
| CCN(CC)c1ccc(N=Cc2ccc(N(CC)CC)cc2O)cc1 | 6 |
| CCCCC(=O)Nc1ccc(C(=O)OC2CCCCC2)cc1 | 1 |
| CC(C)(C)c1ccc(C(=O)NNC(=O)c2ccc(Cl)cc2)cc1 | 1.9 |
| COc1nc(-c2cnccn2)sc1C | 1.1 |
| Cc1nn(CC(=O)NC2C(=O)N3C(C(=O)O)=C(CSc4nnnn4C)CSC23)cc1Br (stereo unspecified) | 1.2 |
| CC(=O)NC(=S)Nc1ccc(NC(=O)COc2ccc(C(C)C)cc2)cc1 | 1 |
| CCc1ccc(CNC(=O)Cn2nc(-c3ccccc3)ccc2=O)cc1 | 1 |
| Cc1c(C(=O)Oc2cc(N)n(S(C)(=O)=O)n2)cccc1[N+](=O)[O-] | 1 |
| C=CCN1C(=O)C(C)(C)Nc2ccccc21 | 1.1 |
| CCN(CC)c1ccc(C=Nc2ccc(C)cc2)c(O)c1 | 0.9 |
| Cc1coc(C)c1C(=O)CC1(O)C(=O)N(CCc2ccccc2)c2ccccc21 (stereo unspecified) | 1.1 |
| CC(C)=CCSc1nnc([C@@H](NC(=O)OC(C)(C)C)C(C)C)o1 | 1.1 |
| Cn1c(=O)c2c(ncn2CC(=O)N/N=C/c2ccco2)n(C)c1=O | 1.1 |
| CC(C)C(=O)NNC(=O)c1ccccn1 | 1.2 |
| Cn1ncc2c(NNC(=O)c3ccc(Cl)cc3Cl)ncnc21 | 2.4 |
| Cc1cc(C)c(NC(=O)CN2CCN(C)CC2)c(C)c1 | 1.2 |
| CCN1/C(=C/C=C/C=C/c2sc3ccccc3[n+]2CC)Sc2ccccc21 | 53.2 |
| O=C1N(CCCN2C(=O)C3(OCCO3)c3ccccc32)c2ccccc2C12OCCO2 | 1 |
| COc1ccc2nc(Nc3nc(CSc4nc5ccccc5[nH]4)cc(=O)[nH]3)nc(C)c2c1 | 2.4 |
| COC(=O)Nc1nnc(CCc2ccccc2)s1 | 0.9 |
| O=C1c2ccc(Br)cc2C(=O)N1c1ccc(Cc2ccncc2)cc1 | 1.1 |
| C=CCNC(=O)c1cc(-c2ccc(Br)cc2)on1 | 1.2 |
